Assay target: human recombinant MC4R (CHO-K1/Gα15 stable cell line, GenScript) (human, UniProt P32245 1-332)
Sequence (P32245 whole entry): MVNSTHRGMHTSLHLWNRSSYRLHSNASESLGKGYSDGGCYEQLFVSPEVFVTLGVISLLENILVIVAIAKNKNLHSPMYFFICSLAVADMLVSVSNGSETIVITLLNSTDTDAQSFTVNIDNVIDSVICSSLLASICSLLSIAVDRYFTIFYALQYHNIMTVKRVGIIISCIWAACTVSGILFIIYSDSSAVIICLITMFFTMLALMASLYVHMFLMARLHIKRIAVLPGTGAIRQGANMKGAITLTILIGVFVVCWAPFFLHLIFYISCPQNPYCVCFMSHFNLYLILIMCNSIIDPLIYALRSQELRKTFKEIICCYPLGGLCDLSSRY
Protocol summary: cell-based or functional assay
Positions of bridges follow the written chain, without caps; N, C: chain ends. Non-standard residues stand in square brackets, D forms with d. Trp(1-Me) = Cn1cc(C[C@H](N)C(=O)O)c2ccccc21; Lys(N3) = [N-]=[N+]=NCCCC[C@H](N)C(=O)O; Nle = CCCC[C@H](N)C(=O)O; Pra = C#CC[C@H](N)C(=O)O
Observable: MC4R IC50 (nM)

- Binder: "XXHFRWX (Ac-Nle-[Dab-His-DPhe-Arg-Trp-Dab] Linker: succinic acid-NH2) [KR-041]"
  Units: "nM"
  MC4R IC50: 13.8

I. Ac-[Nle][Lys(N3)]H[dF]R[Trp(1-Me)][Pra]K-NH2 (triazole 2-7; not fully specified; printed as Ac-Nle-[Lys(N3)-His-DPhe-Arg-Trp(Me)-Pra]-Lys-NH2) [KR-060]
II. Ac-EHFRWGC-NH2 (bridge N-7; not fully specified (bridges); printed as Cyclo(-Ac-Glu-His-Phe-Arg-Trp-Gly-Cys)-NH2) [KR-012]
IN: Could you point out whether the larger MC4R IC50 belongs to I or to II ? Lab note: record the label of whichever item you select.
OUT: I
